pKi: −log10 of the molar value.
READOUT TYPE: pKi

**Q:** Find pKi for CCn1c(=O)c2[nH]c(-c3ccc(N(CCOC)C(=O)Nc4ccncc4)nc3)nc2n(CC)c1=O on rat A2B receptors (rA2B) (Rattus norvegicus) and write it down.
Sequence (P29276 whole entry): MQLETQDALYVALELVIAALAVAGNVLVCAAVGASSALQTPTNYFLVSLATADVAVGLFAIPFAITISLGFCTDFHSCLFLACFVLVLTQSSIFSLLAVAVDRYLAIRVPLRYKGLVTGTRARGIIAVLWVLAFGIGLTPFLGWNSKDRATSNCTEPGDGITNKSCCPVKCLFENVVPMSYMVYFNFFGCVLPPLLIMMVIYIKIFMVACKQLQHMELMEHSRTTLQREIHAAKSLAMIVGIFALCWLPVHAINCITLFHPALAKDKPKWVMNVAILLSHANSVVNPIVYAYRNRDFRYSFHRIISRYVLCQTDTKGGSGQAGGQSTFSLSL
**A:** > 6.30

**Q:** Look up and report pKi, with rat A2B receptors (rA2B) (Rattus norvegicus) as system, for CCCn1c(=O)c2[nH]c(-c3ccc(N4CCOCC4)nc3)nc2n(CCC)c1=O
**A:** > 7.00

**Q:** Provide rat A2B receptors (rA2B) (Rattus norvegicus) pKi reading for CCCn1c(=O)c2[nH]c(-c3ccc(NC)nc3)nc2n(CCC)c1=O .
**A:** > 6.30

**Q:** Retrieve pKi on rat A2B receptors (rA2B) (Rattus norvegicus); query CCn1c(=O)c2[nH]c(-c3ccc(N(CC4CC4)C(=O)c4cccnc4)nc3)nc2n(CC)c1=O
**A:** > 6.30

**Q:** // fetch pKi for CCCn1c(=O)c2[nH]c(-c3ccc(N4CCN(C(C)=O)CC4)nc3)nc2n(CCC)c1=O ; system: rat A2B receptors (rA2B) (Rattus norvegicus)
**A:** > 6.30
